- assay-target: T1, human GIP receptor (human) (UniProt P48546)
- T1 sequence (looked up): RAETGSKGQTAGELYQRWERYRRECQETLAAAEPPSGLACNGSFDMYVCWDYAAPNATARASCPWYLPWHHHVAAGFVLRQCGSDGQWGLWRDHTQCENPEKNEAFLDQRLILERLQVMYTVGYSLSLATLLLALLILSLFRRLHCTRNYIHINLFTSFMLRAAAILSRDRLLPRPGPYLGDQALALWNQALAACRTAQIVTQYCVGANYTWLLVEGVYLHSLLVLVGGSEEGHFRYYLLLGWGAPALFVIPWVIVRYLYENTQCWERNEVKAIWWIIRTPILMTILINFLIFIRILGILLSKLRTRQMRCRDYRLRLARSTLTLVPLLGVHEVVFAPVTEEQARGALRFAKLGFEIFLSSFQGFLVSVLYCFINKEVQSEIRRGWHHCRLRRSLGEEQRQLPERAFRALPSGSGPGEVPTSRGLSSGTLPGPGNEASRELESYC
- assay-overview: cell-based or functional assay
Give cAMP Rel EC50 (in the presence of 1% HSA) for every item shown.
One number for each entry, in nM.

Field: example entries. Status: answers known.
INPUT: State the recorded cAMP Rel EC50 (in the presence of 1% HSA) for this entry: YXQGTFTSDFSXXLDKKAQXAFIEYLLEAGPSSGHPPPSGS (non-natural residues (Aib, Orn, αMeL); lipidated Lys; C-terminal amide; synthetic construct; SITE 2: note = 2-Aminoisobutyric Acid; SITE 12: note = L-ornithine; SITE 13: note = alpha-methyl-leucine; SITE 17: note = Lysine is chemically modified through conjugation of the epsilon-amino group of the Lysine side chain with (2-[2-(2-Amino-ethoxy)-ethoxy]-acetyl)2-(gamma-Glu)) [Example 253]
OUTPUT: 26.6

INPUT: State the recorded cAMP Rel EC50 (in the presence of 1% HSA) for this entry: YXQGTFTSDXSKXLDKKAQXAFIEYLIEXGESSGEPPPSGE (Aib, 4Pal, alpha-methyl-Leu, lipidated Lys, C-terminal amide; synthetic construct; SITE 2: note = 2-Aminoisobutyric Acid; SITE 10: note = 3-(4-Pyridyl)-L-alanine; SITE 13: note = alpha-methyl-leucine; SITE 17: note = Lysine is chemically modified through conjugation of the epsilon-amino group of the Lysine side chain with (2-[2-(2-Amino-ethoxy)-ethoxy]-acetyl)) [Example 281]
OUTPUT: 25.8

***
INPUT: State the recorded cAMP Rel EC50 (in the presence of 1% HSA) for this entry: YXQGTXTSDXSIXLDKKAQXAFIEYLEEGGPSSGEPPPSGEGE (non-natural residues; lipidated Lys; C-terminal amide; synthetic construct; SITE 2: note = 2-Aminoisobutyric Acid; SITE 6: note = alpha-methyl-2-fluoro-L-phenylalanine; SITE 10: note = 3-(4-Pyridyl)-L-alanine; SITE 13: note = alpha-methyl-leucine; SITE 17: note = Lysine is chemically modified through conjugation of the epsilon-amino group of the Lysine) [Example 625]
OUTPUT: 1.81
